Sourced from patent US20250263376A1

Tested on: S. typhimurium TA1535
assay.method.text: Ames microplate test, TA1535;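 further: bacteria exposed 90 min at 37 °C in exposure medium, then 48 h in indicator medium in 384-well plates, yellow (revertant) wells counted per condition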
conditions: 1.0 mM, without S9
measured.metric: Increase in the number of yellow wells compared to the reference level, TA1535

Task: Name the recorded Increase in the number of yellow wells compared to the reference level, TA1535 of `Cc1ccc(/C=C/C(=O)NCCCCCO)cc1` , assay system S. typhimurium TA1535.
Output: 0.41

Task: # return Increase in the number of yellow wells compared to the reference level, TA1535 for `O=C(/C=C/c1ccc(Cl)cc1)NCCCCCO` , test system: S. typhimurium TA1535
Output: 0.18

Task: Name the value of Increase in the number of yellow wells compared to the reference level, TA1535 reported for `O=C(/C=C/c1ccccc1)NCCCCCCO` when tested on S. typhimurium TA1535.
Output: 0.59

Task: Specify the recorded Increase in the number of yellow wells compared to the reference level, TA1535 for CC(CO)NC(=O)/C=C/c1ccc(Cl)cc1 (stereo not drawn) , system: S. typhimurium TA1535.
Output: 0.14

Task: Report Increase in the number of yellow wells compared to the reference level, TA1535 from S. typhimurium TA1535 testing of CCC(O)CNC(=O)/C=C/c1ccc(Cl)cc1 (stereo not drawn)
Output: 0.45

Task: For S. typhimurium TA1535, give Increase in the number of yellow wells compared to the reference level, TA1535 of the listed compound: `O=C(/C=C/c1ccccc1)NCCCCCO`
Output: 0.55
